ASSAY PROCEDURE: in vitro
Assay type: cell-based, human
SETTINGS: human, MTT, 24 h; read-out: Cytotoxicity, IC50, MCF-10A
pIC50: −log10 of the molar value.
RECORDED METRIC: pIC50

MOLECULE	ENDPOINT VALUE
CO[C@@H]1[C@@H](O)[C@H](O[C@@H]2[C@@H](O)[C@H](O[C@H]3[C@H](O)[C@@H](O[C@@H]4OC[C@@H](O)[C@H](O)[C@H]4O)[C@H](O[C@H]4[C@H](O[C@H]5CC[C@]6(C)C7=CC[C@]8(C)[C@@H]([C@@](C)(O)C(=O)CC=C(C)C)CC[C@@]8(C)C7CC[C@H]6C5(C)C)OC[C@@H](OS(=O)(=O)[O-])[C@@H]4O)O[C@@H]3C)O[C@H](COS(=O)(=O)[O-])[C@H]2O)O[C@H](COS(=O)(=O)[O-])[C@H]1O.[Na+].[Na+].[Na+] (stereo partly shown) [Conicospermiumoside A7-1 (4)]	4.40

Hey, just so you know, these numbers are from paper PMC11676834.
